// provenance: the supplement of paper PMC7125110

B1: glmS ribozyme (parent)
chain: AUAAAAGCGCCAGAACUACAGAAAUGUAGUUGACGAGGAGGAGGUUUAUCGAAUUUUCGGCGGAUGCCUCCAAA

Variants of: B1
Experiment: self-cleavage kobs at 2500 uM GlcN6P; higher = faster cleavage; RNA array
Conditions: with glucosamine-6-phosphate
Fewer inactive variants are shown than the library holds.
Documented self-cleavage kobs at 2500 uM GlcN6P across a set of variants

Consider the following illustrative entries.
[
  {
    "Changes": "G9A C61U",
    "self-cleavage kobs at 2500 uM GlcN6P": "0.000144 s⁻¹"
  },
  {
    "Changes": "A14G C16U G41A",
    "self-cleavage kobs at 2500 uM GlcN6P": "0.0028 s⁻¹"
  },
  {
    "Changes": "G32U G41A U47G C61A G62U",
    "self-cleavage kobs at 2500 uM GlcN6P": "< 1e-05 s⁻¹"
  },
  {
    "Changes": "C16A C34A",
    "self-cleavage kobs at 2500 uM GlcN6P": "< 1e-05 s⁻¹"
  }
]

C16U G32C A36G C58G G59C C61A has a reported self-cleavage kobs at 2500 uM GlcN6P of < 1e-05 s⁻¹

C11U C67A has a reported self-cleavage kobs at 2500 uM GlcN6P of 0.000256 s⁻¹

G7A G38C has a reported self-cleavage kobs at 2500 uM GlcN6P of < 1e-05 s⁻¹
